# System: Muscarinic acetylcholine receptor M4, putative (Cavia porcellus)
# assayOverview: Antagonist activity at putative muscarinic receptor M4 assessed as contraction of electrically-stimulated guinea pig lung strips
# settings: filed as antagonist
measurementType: pKb
# print the numeric value only

Here are 3 compounds together with their reported answers.
CN1CCC[C@H]1[C@H]1CS[C@@](c2ccccc2)(C2CCCCC2)O1 | 6.22
C[N+]1(C)CCC[C@@H]1[C@@H]1CS[C@](c2ccccc2)(C2CCCCC2)O1 | 6.55
CN1CCC[C@@H]1[C@@H]1CS[C@](c2ccccc2)(C2CCCCC2)O1 | 6.03

Enquiry: Item under review: "C[N+]1(C)CCC[C@@H]1[C@@H]1CS[C@@](c2ccccc2)(C2CCCCC2)O1" . Reported pKb?
Return: 6.47

Enquiry: Item under review: "CN1CCC[C@@H]1[C@@H]1CSC(c2ccccc2)(c2ccccc2)O1" . Reported pKb?
Return: 6.06

---

This section presents compounds with their documented Ki values.
# target: Muscarinic acetylcholine receptor M3 (Homo sapiens, UniProt P20309)
# Sequence (P20309 whole entry): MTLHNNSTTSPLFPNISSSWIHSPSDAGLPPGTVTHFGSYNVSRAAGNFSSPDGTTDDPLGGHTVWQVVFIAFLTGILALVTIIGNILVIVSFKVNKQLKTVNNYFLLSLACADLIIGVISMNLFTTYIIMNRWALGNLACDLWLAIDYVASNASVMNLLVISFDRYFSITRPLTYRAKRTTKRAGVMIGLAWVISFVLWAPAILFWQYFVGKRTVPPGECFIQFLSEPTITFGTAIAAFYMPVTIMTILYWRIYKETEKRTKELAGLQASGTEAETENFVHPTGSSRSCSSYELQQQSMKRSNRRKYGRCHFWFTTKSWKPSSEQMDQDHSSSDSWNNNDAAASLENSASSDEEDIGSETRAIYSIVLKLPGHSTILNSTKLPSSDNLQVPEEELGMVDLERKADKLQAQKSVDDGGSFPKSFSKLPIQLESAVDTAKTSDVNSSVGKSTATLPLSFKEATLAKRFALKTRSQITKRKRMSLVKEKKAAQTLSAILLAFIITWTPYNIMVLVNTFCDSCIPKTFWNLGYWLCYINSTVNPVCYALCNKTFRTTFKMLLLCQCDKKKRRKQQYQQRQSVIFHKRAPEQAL
# assayOverview: Binding affinity to human cloned muscarinic receptor M3 expressed in CHO cells
# Type: cell-based

Enquiry: Item under review: "C[N+]1(C)CCC[C@@H]1[C@@H]1CSC(c2ccccc2)(c2ccccc2)O1" . Reported Ki?
Return: 5.01 nM (antagonist)

Enquiry: Item under review: "C[N+]1(C)CCC[C@H]1[C@H]1CS[C@](c2ccccc2)(C2CCCCC2)O1" . Reported Ki?
Return: 0.589 nM (antagonist)

Enquiry: Item under review: "CN1CCC[C@H]1[C@H]1CS[C@](c2ccccc2)(C2CCCCC2)O1" . Reported Ki?
Return: 1.7 nM (antagonist)

Enquiry: Item under review: "CN1CCC[C@H]1[C@H]1CS[C@@](c2ccccc2)(C2CCCCC2)O1" . Reported Ki?
Return: 0.891 nM (antagonist)

---

# Tested on: Muscarinic acetylcholine receptor M1, putative (Oryctolagus cuniculus)
# settings: Vas deferens, filed as antagonist
measurementType: pKb
# print the numeric value only

Here are 5 compounds together with their reported answers.
CN1CCC[C@H]1[C@H]1CS[C@](c2ccccc2)(C2CCCCC2)O1 | 8.32
CN1CCC[C@H]1[C@H]1CS[C@@](c2ccccc2)(C2CCCCC2)O1 | 7.41
C[N+]1(C)CCC[C@@H]1[C@@H]1CS[C@](c2ccccc2)(C2CCCCC2)O1 | 8.49
CN1CCC[C@@H]1[C@@H]1CSC(c2ccccc2)(c2ccccc2)O1 | 8.66
C[N+]1(C)CCC[C@@H]1[C@@H]1CS[C@@](c2ccccc2)(C2CCCCC2)O1 | 9.53

Enquiry: Item under review: "CN1CCC[C@@H]1[C@@H]1CS[C@](c2ccccc2)(C2CCCCC2)O1" . Reported pKb?
Return: 9.16

Enquiry: Item under review: "C[N+](C)(C)C[C@@H]1CS[C@@](c2ccccc2)(C2CCCCC2)O1" . Reported pKb?
Return: 8.81

---

This section presents compounds with their documented Ki values.
# target: Muscarinic acetylcholine receptor M5 (Homo sapiens, UniProt P08912)
# assayOverview: Binding affinity to human cloned muscarinic receptor M5 expressed in CHO cells
# Assay type: cell-based

Enquiry: Item under review: "CN1CCC[C@@H]1[C@@H]1CSC(c2ccccc2)(c2ccccc2)O1" . Reported Ki?
Return: 3.24 nM (antagonist)

---

# target: Muscarinic acetylcholine receptor M5 (Homo sapiens, UniProt P08912)
# Sequence (P08912 whole entry): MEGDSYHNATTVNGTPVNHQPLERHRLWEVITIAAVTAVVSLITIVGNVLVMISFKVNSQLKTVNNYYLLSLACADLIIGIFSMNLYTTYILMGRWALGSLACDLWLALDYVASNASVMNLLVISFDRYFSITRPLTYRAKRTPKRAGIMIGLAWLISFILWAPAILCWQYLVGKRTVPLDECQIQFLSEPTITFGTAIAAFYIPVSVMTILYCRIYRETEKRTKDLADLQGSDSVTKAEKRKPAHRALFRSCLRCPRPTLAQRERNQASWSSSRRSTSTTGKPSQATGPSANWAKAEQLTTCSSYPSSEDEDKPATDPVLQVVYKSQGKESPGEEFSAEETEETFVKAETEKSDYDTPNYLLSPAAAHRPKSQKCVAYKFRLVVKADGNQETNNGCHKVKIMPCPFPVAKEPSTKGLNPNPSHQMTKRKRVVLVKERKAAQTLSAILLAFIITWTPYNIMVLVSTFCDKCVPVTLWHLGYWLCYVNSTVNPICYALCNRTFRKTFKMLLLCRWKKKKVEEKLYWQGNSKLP
# assayOverview: Binding affinity to human cloned muscarinic receptor M5 expressed in CHO cells
# Type: cell-based
This section presents compounds with their documented Ki values.

Enquiry: Item under review: "CN1CCC[C@H]1[C@H]1CSC(c2ccccc2)(c2ccccc2)O1" . Reported Ki?
Return: 5.62 nM (antagonist)

Enquiry: Item under review: "C[N+]1(C)CCC[C@H]1[C@H]1CS[C@](c2ccccc2)(C2CCCCC2)O1" . Reported Ki?
Return: 0.2 nM (antagonist)

Enquiry: Item under review: "C[N+]1(C)CCC[C@H]1[C@H]1CSC(c2ccccc2)(c2ccccc2)O1" . Reported Ki?
Return: 0.407 nM (antagonist)

Enquiry: Item under review: "CN1CCC[C@@H]1[C@@H]1CS[C@@](c2ccccc2)(C2CCCCC2)O1" . Reported Ki?
Return: 1.2 nM (antagonist)

Enquiry: Item under review: "C[N+](C)(C)C[C@@H]1CS[C@@](c2ccccc2)(C2CCCCC2)O1" . Reported Ki?
Return: 2.82 nM (antagonist)

Enquiry: Item under review: "C[N+]1(C)CCC[C@@H]1[C@@H]1CS[C@@](c2ccccc2)(C2CCCCC2)O1" . Reported Ki?
Return: 0.776 nM (antagonist)

Enquiry: Item under review: "CN1CCC[C@H]1[C@H]1CS[C@](c2ccccc2)(C2CCCCC2)O1" . Reported Ki?
Return: 2 nM (antagonist)

Enquiry: Item under review: "C[N+]1(C)CCC[C@@H]1[C@@H]1CSC(c2ccccc2)(c2ccccc2)O1" . Reported Ki?
Return: 3.47 nM (antagonist)
